Experiment: pH solubility screen in Citric Acid / Dibasic Sodium Phosphate buffers
Type: physicochemical
Conditions: lower pH of range
Procedure: pH Solubility. […] Protein was either lyophilized and then resuspended in buffer cocktail mixtures, or concentrated and then spiked into buffer cocktail mixtures at a final protein concentration of 5 to 30 mg/ml. […] Turbidity of proteins was determined by measuring the absorbance of protein solutions at 650 nm. […] The pH range over which select proteins remained greater than 80% soluble as determined by Bradford and the A650 value are listed in Table E31C.
Collected pH Range where Protein is >80% detected as Soluble and A650 <1 OD: Low values appear next to each entry.
No unit in the answer, please; the number alone is enough.

Record excerpt, results attached:
SEQID-00287: nutritive polypeptide (protein, listed as Saccharomyces cerevisiae, strain ATCC 204508 / S288c, nutritive polypeptide) LVLGALLDTSHKFRNLDKDLCEKCAKCISMIGVLDVTKHEFKRTTYSENEVYDLNDSVQTIKFLIWVINDILV = 6.2
SEQID-00100: nutritive polypeptide (protein, listed as Lactobacillus acidophilus) MSEEEIFNKIKDLIADNFEVDKDSITENTNFMNDLDADSIDLVEFILQLEDEFGAEIPDDEAEKIKTVGDAVSYIKSHQG = 4.3

What pH Range where Protein is >80% detected as Soluble and A650 <1 OD: Low value was documented for this molecule, SEQID-00502: protein of the 168 nutritive polypeptide library (protein, Glycine max, protein of the 168 nutritive polypeptide library) MASQSNTKSVHDFTVKDARGNNVNLADYKGKVLLIVNVASQCGLTNSNYTELNQLYEKYKGKGLEILAFPCNQFGAQEPGTNEEIVEFACTRFKAEFPIFDKVDVNGDNAAPLYKFLKSSKGGLFGDSIKWNFSKFLVDKDGNVVDRYAPTTSPLSIEKDIKKLLDA ?
7.1

Cited source for all entries: patent US20260069656A1
